Molecular target: T1, His-tagged human PD-1 protein (human, UniProt Q15116 25-170, limits assumed)
T1 construct: SPR analyte; also called his-tagged antigen PD-1; not shown: His tag
T1 sequence (Q15116 25-170 limits assumed): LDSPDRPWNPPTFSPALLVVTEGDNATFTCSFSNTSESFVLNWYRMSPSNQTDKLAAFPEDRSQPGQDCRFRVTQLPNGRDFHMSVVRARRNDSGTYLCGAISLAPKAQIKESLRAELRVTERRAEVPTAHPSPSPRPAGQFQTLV
Assay: SPR (Biacore T200); IgG captured by anti-human Fc gamma, His-tagged human PD-1 as analyte, 1:1 model
pKd: −log10 of the molar value.
property-name: pKd

1. PD1-BM-min (IgG) (antibody, V domains shown, Full-length humanized IgG from HEK293 cells) VH: EVQLVESGGGLVQPGGSLRLSCAASGFVFSRYDMAWVRQAPGKGLEWVSFISGGGSNTYYPDTVKGRFTISRDNSKNTLYLQMNSLRAEDTAVYYCISPYYYAMEYWGQGTTVTVSS VL: DIQMTQSPSSVSASVGDRVTITCKASQDVDTAVAWYQQKPGKAPKLLIYWASTRHTGVPSRFSGSGSGTDFTLTISSLQPEDFATYYCQQYSTFPWTFGGGTKVEIKR ... 9.03
2. AS05617 (IgG) (antibody, V domains shown, Full-length humanized IgG from HEK293 cells) VH: EVQLVESGGGLVQPGGSLRLSCAASGFVFSRYDMAWVRQTPGKGLEWVSFISGGGSNTYYPDTVKGRFTISRDNSKNTLYLQMNSLRAEDTAVYYCISPYYYAMEYWGQGTTVTVSS VL: DIQMTQSPSSISTSVGDRVTITCKASQDVDTAVAWYQQKPGKSPKLLIYWASTRHTGVPSRFSGSGSGTDFTLTISSLQPEDFADYFCQQYSTFPWTFGGGTKVEIKR ... 9.00
3. chimeric IgG (antibody, V domains shown, Full-length IgG from HEK293-6E cells; also called murine-human chimeric antibody derived from PD1#3) VH: EVQLVESGGDLVKPGGSLKLSCAASGFVFSRYDMAWVRQTPEKRLEWVAFISGGGSNTYYPDTVKGRFTISRDNAKNTLYLQMTSLKSEDTAVYYCISPYYYAMEYWGQGTSVTVSS VL: DIVMTQSHKFISTSVGDRVSITCKASQDVDTAVAWYQQKPGQSPKLLIHWASTRHTGVPDRFTGGGSGTDFTLTLSNVQSEDLADYFCQQYSTFPWTFGGGTRLEIKR ... 9.31
4. PD1-BM Ab (IgG) (antibody, V domains shown, Full-length humanized IgG from HEK293 cells) VH: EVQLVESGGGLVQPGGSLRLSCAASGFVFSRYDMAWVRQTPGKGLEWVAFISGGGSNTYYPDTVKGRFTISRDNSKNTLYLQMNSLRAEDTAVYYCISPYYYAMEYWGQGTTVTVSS VL: DIQMTQSPSSISTSVGDRVTITCKASQDVDTAVAWYQQKPGKSPKLLIHWASTRHTGVPSRFSGSGSGTDFTLTLSSVQPEDLADYFCQQYSTFPWTFGGGTKLEIKR ... 9.24
